Biological target: T1, human TMEM106B (human, UniProt Q9NUM4 2-274)
T1 construct: full-length, transiently expressed on HEK293 cells, or natively expressed on HeLa, U251 and A549 cells (the cell is named under assay); also the source of the Pepscan peptides; also called huTMEM106B; huTMEM
Test: FACS HEK+huTMEM 1.0 ug/ml;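 also: binding of purified mouse IgG antibodies to HEK293 cells transiently expressing human TMEM106B, read by flow cytometry as median fluorescence intensity of live, propidium iodide-negative cells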
quantity-name: MFI (MFI)
State just the number; it will be interpreted in MFI.

{"binder": "TM-1 (antibody, V domains shown) VH: QVQLQQSGAELVRPGTSVKVSCKASGYAFTNYLIEWVKQRPGQGLEWIGVINPGSGGTKYNEKLKGKATLTADKSSSTAYMQLSSLTSVDSAVYFCARRGYTIYDFYAMDYWGQGTSVTVSS VL: DVLMTQTPLSLPVSLGDHASISCRSSQSIVYNNGNTYLEWYLQKPGQSPKLLIYKVSNRFSGVPDRFSGSGSGTDFTLKISRVEAEDLGVYYCFQVSHVPFTFGSGTKLEIK", "MFI / MFI": 2010}
{"binder": "TM-9 (antibody, V domains shown) VH: EVQLVESGGDLVKPGGSLKLSCVASGFTFSGYGMSWVRQTPDKRLEWVATISSGSFYIYYPDSVKGRLTVSRDNAKNTLYLQMSSLKSEDTAIYYCARQNFYYGCEDYWGQGTTLTVSS VL: DIVMTQAAFSNPVTLGTSASISCRSSKSLLHSNGITYLYWYLQKPGQSPQLLIYQMSNLASGVPNRFSSSGSGTDFTLRISRVEAEDVGVYYCAQNLELPWTFGGGTKLEIK", "MFI / MFI": 62100}

Next:
For TM-24 (antibody, V domains shown, mouse IgG (hybridoma)) VH: QVQLKQSGPGQVQPSQSLSITCTVSGFSLSDYGVHWVRQSPGKGLEWLGVIWNNGNTDYNAAFISRLSINKDNSKSQVFFKMTSLQADDTAIYYCVRSLRPLHFDYWGQGTTVTVSS VL: DIVMTQSPSSLTMSVGQKVTMNCKSSQSLLNSNNQQNYLAWYQQKPGQSPKLLVYFASIRESGVPDRFIGSGSGTDFTLTINSVQAEDLADYFCQQHYSTPFTFGSGTKLEIR , what is its reported MFI?
64500
